biological target: HDAC9 enzyme (Homo sapiens); construct: transducing full length HDAC9 gene into Sf-9 insect cells; made in house; host or cells: Sf-9 insect cells; experiment: HDAC9 enzyme inhibitory assay (HDAC-Glo class IIa); format: biochemical; settings: wells without enzyme = 100% inhibition, read-out: HDAC9 inhibitory rate (%) (1 μM)
Sequence (Q9UKV0 whole entry, species assumed): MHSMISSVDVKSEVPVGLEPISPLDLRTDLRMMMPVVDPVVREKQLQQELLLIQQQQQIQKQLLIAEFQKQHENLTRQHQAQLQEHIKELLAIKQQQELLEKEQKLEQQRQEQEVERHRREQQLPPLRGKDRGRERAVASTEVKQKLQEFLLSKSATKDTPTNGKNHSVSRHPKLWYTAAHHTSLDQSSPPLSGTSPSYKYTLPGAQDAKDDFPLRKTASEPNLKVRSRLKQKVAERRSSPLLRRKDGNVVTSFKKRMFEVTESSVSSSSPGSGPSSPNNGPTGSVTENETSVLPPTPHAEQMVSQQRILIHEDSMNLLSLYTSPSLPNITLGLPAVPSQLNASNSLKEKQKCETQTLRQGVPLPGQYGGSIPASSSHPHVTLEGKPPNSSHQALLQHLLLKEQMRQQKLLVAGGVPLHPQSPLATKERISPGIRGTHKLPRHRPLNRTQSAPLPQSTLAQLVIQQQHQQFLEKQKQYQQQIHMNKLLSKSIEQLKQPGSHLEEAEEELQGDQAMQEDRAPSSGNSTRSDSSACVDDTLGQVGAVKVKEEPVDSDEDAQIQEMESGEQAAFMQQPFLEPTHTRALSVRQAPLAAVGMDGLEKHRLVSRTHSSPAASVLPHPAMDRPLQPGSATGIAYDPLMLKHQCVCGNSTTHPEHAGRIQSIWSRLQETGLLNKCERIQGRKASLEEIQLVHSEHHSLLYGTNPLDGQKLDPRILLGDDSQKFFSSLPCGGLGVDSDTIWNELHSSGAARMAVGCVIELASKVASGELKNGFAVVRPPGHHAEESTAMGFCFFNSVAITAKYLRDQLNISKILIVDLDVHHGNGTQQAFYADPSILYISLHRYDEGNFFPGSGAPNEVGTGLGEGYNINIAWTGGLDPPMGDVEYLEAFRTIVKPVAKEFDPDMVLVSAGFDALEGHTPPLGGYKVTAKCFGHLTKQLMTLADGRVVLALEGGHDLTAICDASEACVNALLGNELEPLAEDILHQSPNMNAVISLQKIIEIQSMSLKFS
Recorded inhibition at 1 µM, one value per entry.
Output spec: scalar in %, unitless text.

Example cases with answers are listed next.
compound="O=C(NCC1CCCCN1C(=O)Nc1ccc(-c2noc(C(F)(F)F)n2)cc1)c1cccc(F)c1 (stereo not shown) [Example 5]" unit_symbol=% meas_value=95
compound="O=C(NCC1CCCCN1C(=O)Nc1ccc(-c2noc(C(F)(F)F)n2)cc1)c1ccc(O)cc1 (stereo not shown) [Example 27]" unit_symbol=% meas_value=93
compound="CN1CCC(C(=O)NCC2CCCCN2C(=O)Nc2ccc(-c3noc(C(F)(F)F)n3)cc2)CC1 (stereo not shown) [Example 52]" unit_symbol=% meas_value=80

Q: Identify measured inhibition at 1 µM obtained with HDAC9 enzyme (Homo sapiens) for O=C(NCC1CCCCN1C(=O)Nc1ccc(-c2noc(C(F)(F)F)n2)cc1)C1CCOCC1 (stereo not shown) [Example 51] .
Ans: 97

Q: Fill in inhibition at 1 µM for O=C(NCC1CCCCN1C(=O)Nc1ccc(-c2noc(C(F)(F)F)n2)cc1)c1cccc(C(F)(F)F)c1 (stereo not shown) [Example 17] tested with HDAC9 enzyme (Homo sapiens).
Ans: 80

Q: Recall the reported inhibition at 1 µM of COc1ccc(C(=O)NCC2CCCCN2C(=O)Nc2ccc(-c3noc(C(F)(F)F)n3)cc2)cc1 (stereo not shown) [Example 25] on HDAC9 enzyme (Homo sapiens) and write it down.
Ans: 95

Q: // fetch inhibition at 1 µM; item: O=C(NCC1CCCCN1C(=O)Nc1ccc(-c2noc(C(F)(F)F)n2)cc1)C1CCc2ccccc2O1 (stereo not shown) [Example 43] ; system: HDAC9 enzyme (Homo sapiens)
Ans: 74

Q: Please indicate recorded inhibition at 1 µM of Cc1cccc(C(=O)NCC2CCCCN2C(=O)Nc2ccc(-c3noc(C(F)(F)F)n3)cc2)c1 (stereo not shown) [Example 11] measured with HDAC9 enzyme (Homo sapiens).
Ans: 90

Q: Fill: inhibition at 1 µM (HDAC9 enzyme (Homo sapiens)) for this compound O=C(NCC1CCCCN1C(=O)Nc1ccc(-c2noc(C(F)(F)F)n2)cc1)c1ccc2nccn2c1 (stereo not shown) [Example 45]
Ans: 93

Q: Recall the reported inhibition at 1 µM of O=C(NCC1CCCCN1C(=O)Nc1ccc(-c2noc(C(F)(F)F)n2)cc1)c1csc(C(F)(F)F)n1 (stereo not shown) [Example 60] when tested on HDAC9 enzyme (Homo sapiens).
Ans: 72

Q: # return inhibition at 1 µM of O=C(NCC1CCCCN1C(=O)Nc1ccc(-c2noc(C(F)(F)F)n2)cc1)Nc1ccccc1 (stereo not shown) [Example 54] (system: HDAC9 enzyme (Homo sapiens))
Ans: 89

Q: Fetch value of inhibition at 1 µM on HDAC9 enzyme (Homo sapiens) for O=C(NCC1CCCCN1C(=O)Nc1ccc(-c2noc(C(F)(F)F)n2)cc1)c1ccccc1C(F)(F)F (stereo not shown) [Example 16] .
Ans: 57

Q: Would you please give the reported inhibition at 1 µM of O=C(NCC1CCCCN1C(=O)Nc1ccc(-c2noc(C(F)(F)F)n2)cc1)c1cccc(O)c1 (stereo not shown) [Example 26] with HDAC9 enzyme (Homo sapiens)?
Ans: 94

Data origin: patent US10406146B2
